The next entries give measured IC50 for His6-TEV-PDGFRβ (557-1016) (Homo sapiens (Human), UniProt P09619).
One number for each entry, in nM.

List IC50 for every entry below, keeping the order given.
1. COCCn1cc(-c2cn3ncc(C(=O)Nc4cc(NC(=O)C[C@H]5CCCN5C(C)C)cnc4C)c3s2)cn1 [Example 485]
2. Cc1ncc(NC(=O)CN2CCO[C@@H](C)C2)cc1NC(=O)c1cnn2cc(-c3cnn(C)c3)sc12 [Example 64]
3. Cc1ncc(NC(=O)CN2CC(C)(C)C2)cc1NC(=O)c1cnn2cc(-c3c[nH]c4ccccc34)sc12 [Example 287]

[0.8, 0.4, 0.1]

List IC50 for every entry below, keeping the order given.
1. Cc1ncc(NC(=O)OC2CN(C(C)(C)C)C2)cc1NC(=O)c1cnn2cc(-c3cnn(C)c3)sc12 [Example 252]
2. Cc1ncc(NC(=O)CN2CC(C)(C)C2)cc1NC(=O)c1cnn2cc(-c3cnc4n3CCOC4)sc12 [Example 415]
3. COCCn1cc(-c2cn3ncc(C(=O)Nc4cc(NC(=O)CN5CCCC5)cnc4C)c3s2)cn1 [Example 337]

1: 1.1; 2: 0.5; 3: 1.8

List IC50 for every entry below, keeping the order given.
1. Cc1ncc(NC(=O)CN2CCCCCC2)cc1NC(=O)c1cnn2cc(-c3cnn4c3OCCC4)sc12 [Example 420]
2. Cc1ncc(NC(=O)CNC2CCCC2)cc1NC(=O)c1cnn2cc(-c3cnn4c3OCCC4)sc12 [Example 421]
3. COCCn1cc(-c2cn3ncc(C(=O)Nc4cc(C(=O)NCCN5CC6(CCC6)C5)cnc4C)c3s2)cn1 [Example 168]
4. Cc1ncc(NC(=O)CN2CCCCC23CC3)cc1NC(=O)c1cnn2cc(-c3cnn(CCO)c3)sc12 [Example 86]
5. Cc1ncc(NC(=O)NCC2CCN(C)CC2)cc1NC(=O)c1cnn2cc(-c3cnn(C)c3)sc12 [Example 107]
6. Cc1cc(C(=O)NCC(C)(C)N2CCCC2)sc1NC(=O)c1cnn2cc(-c3cnn(C)c3)sc12 [Example 202]
7. Cc1ncc(C(=O)NCCN2CC3CCC2CC3)cc1NC(=O)c1cnn2cc(-c3ccc4oc(=O)[nH]c4c3)sc12 [Example 145]
8. COCCn1cc(-c2cn3ncc(C(=O)Nc4cc(NC(=O)C[C@@H]5CCN(C(C)C)C5)cnc4C)c3s2)cn1 [Example 466]

[0.2, 0.2, 0.6, 1.3, 13.2, 1070, 0.2, 9]

For COc1ncccc1-c1cn2ncc(C(=O)Nc3cc(NC(=O)CN4CC(C)C4)cnc3C)c2s1 [Example 405] the compound record lists IC50 as 0.2
